B1: LINE1-full (parent)
chain: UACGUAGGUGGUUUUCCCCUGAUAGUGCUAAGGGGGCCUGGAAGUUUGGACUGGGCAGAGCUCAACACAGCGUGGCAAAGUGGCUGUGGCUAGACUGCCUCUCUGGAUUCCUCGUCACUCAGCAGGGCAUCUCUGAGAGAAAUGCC

variants of: B1; test: self-cleavage, relative activity (ratio to wild type); higher = more cleavage; in vitro, sequencing; the parent is a self-cleaving ribozyme
propertyLabel: self-cleavage

[[record]]
mut = "U39A G89A"
propertylabel = "self-cleavage"
testresult = 0.06

[[record]]
mut = "U87C U96A"
propertylabel = "self-cleavage"
testresult = 0.09

[[record]]
mut = "A57G G137A"
propertylabel = "self-cleavage"
testresult = 0.99

[[record]]
mut = "A42G G54C"
propertylabel = "self-cleavage"
testresult = 0.84

[[record]]
mut = "G34A A121G"
propertylabel = "self-cleavage"
testresult = 1.16

[[record]]
mut = "A78G U109C"
propertylabel = "self-cleavage"
testresult = 1.38

[[record]]
mut = "U47G A69G"
propertylabel = "self-cleavage"
testresult = 0.67

[[record]]
mut = "A2G U73A"
propertylabel = "self-cleavage"
testresult = 0.95

[[record]]
mut = "A92C A142G"
propertylabel = "self-cleavage"
testresult = 0.33

[[record]]
mut = "U9A C110U"
propertylabel = "self-cleavage"
testresult = 1.06

[[record]]
mut = "U115A C131U"
propertylabel = "self-cleavage"
testresult = 1.65

[[record]]
mut = "U46C G58U"
propertylabel = "self-cleavage"
testresult = 0.05

[[record]]
mut = "A57G U132C"
propertylabel = "self-cleavage"
testresult = 0.86

[[record]]
mut = "A31U U104C"
propertylabel = "self-cleavage"
testresult = 1.3

[[record]]
mut = "C61G C145U"
propertylabel = "self-cleavage"
testresult = 0.03

[[record]]
mut = "A121U A124G"
propertylabel = "self-cleavage"
testresult = 1.31

[[record]]
mut = "C118U C145U"
propertylabel = "self-cleavage"
testresult = 0.86

[[record]]
mut = "U96G U102C"
propertylabel = "self-cleavage"
testresult = 0

[[record]]
mut = "G80A A121C"
propertylabel = "self-cleavage"
testresult = 2.91

[[record]]
mut = "A31U A69G"
propertylabel = "self-cleavage"
testresult = 0.75

[[record]]
mut = "U39A U115C"
propertylabel = "self-cleavage"
testresult = 1.31

